Experiment: Biodistribution studies of 11C tracers;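 note: percentage of injected dose (% ID)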
Type: in vivo, Wistar rats
Conditions: 30 min p.i.
Binary label based on Total brain uptake with cut-off 0.9 % ID: below gives YES, not below gives NO.

Worked cases, answers included:
{"columns": ["Compound", "Discrete Label"],
 "data": [
  ["[11CH3]Oc1cc(F)cc(F)c1C1CCN(c2ccn3c(CC4CC4)nnc3c2Cl)CC1 [[^11C]B-7]", "NO"],
  ["[11CH3]Oc1c(F)ccc(F)c1C1CCN(c2ccn3c(CC4CC4)nnc3c2C(F)(F)F)CC1 [[^11C]B-3]", "YES"],
  ["[11CH3]Oc1ccc(F)cc1C1CCN(c2ccn3c(CC4CC4)nnc3c2Cl)CC1 [[^11C]B-4]", "NO"],
  ["[11CH3]Oc1ccc(F)c(F)c1C1CCN(c2ccn3c(CC4CC4)nnc3c2Cl)CC1 [[^11C]B-10]", "YES"],
  ["[11CH3]Oc1cccc(F)c1C1CCN(c2ccn3c(CC4CC4)nnc3c2Cl)CC1 [[^11C]B-6]", "NO"]
]}

Query :: Is 0.9 % ID strictly greater than the compound's reported Total brain uptake? compound: [11CH3]Oc1c(F)ccc(F)c1C1CCN(c2ccn3c(CC4CC4)nnc3c2Cl)CC1 [[^11C]B-2]
Result :: NO
